Entry source: patent US6372297B1

# Tested on: Mucor sp.
# protocol description: Wood preservative efficacy against fungi, agar plate colony diameter
# Assay type: cell-based
# test settings: 100 ppm, Table 6B
recorded endpoint: Score of fungicidal activity, MUCOR SP
Number, no unit, nothing else.

Score of fungicidal activity, MUCOR SP for CCOC(=O)c1ccc(C2=NOCC[S+]2[O-])cc1 (stereo not drawn) [Compound 22] ? 0

Again, but for C[S+]1CCON=C1c1ccc(C(F)(F)F)cc1 (stereo not drawn) [Compound 25] 0

Again, but for C[S+]1CCON=C1c1ccccc1 (stereo not drawn) [Compound 17] 4

* * *

Consider the following compounds; for each one, report its MIC (ppm) against P. variotii.
# System: molds and blue-stain fungi
# protocol description: In vitro activity against molds and blue-stain fungi, poison plate assay (MIC)
# Format: cell-based
# test settings: P. variotii, malt extract agar, complete inhibition
Please give a number only; it is taken to be in ppm.

What measured MIC (ppm) against P. variotii is associated with [O-][S+]1CCON=C1c1ccc(Cl)c(Cl)c1 (stereo not shown) on molds and blue-stain fungi? 10

Again, but for `O=S1(=O)CCON=C1c1cccs1` 25

Again, but for [O-][S+]1CCON=C1c1ccc(Cl)s1 (stereo not shown) 10
